Tested on: Plasmodium falciparum NF54-HGL (transmission to Anopheles stephensi)
measurement.notes: percentage of barcode signal found in uninfected mosquitoes (transmission-blocking activity); higher = stronger blocking of transmission to mosquito, active = 80 or more
setup.conditions: 20 µM; gametocyte preincubation time 24 h; readout time post-feed 8 days
// one of t for active, f for inactive, no free text

Would you please look over these solved cases?
                         structure_notation  class_assignment
0  O=C(OCc1ccccc1)N1CCC(c2cc(-c3ccncc3)c(-c3ccc(F)cc3)[nH]2)CC1                 f
1  CCOC(=O)c1c(NC(=O)c2c(F)c(F)c(F)c(F)c2F)sc(C(N)=O)c1C                 f
2  O=C(NCc1cc(Cl)cc(Cl)c1)c1c(C(F)(F)F)nc2ccccn12                 f

Exam item: Which outcome was assigned to CC(C)(C)CN1C(=O)C(c2ccccc2)(c2ccccc2)N=C1N in this test?
Marked response: f

Exam item: Answer briefly: the call reported for CC(C)(CN)c1nc(-c2ccc(Cl)c(O)c2)c(-c2ccnc(N)n2)[nH]1 in this assay.
Marked response: t

Exam item: // param item: c1ccc(Oc2ccc(-c3cncc(-c4ccc5[nH]ccc5c4)n3)cc2)cc1 ; yields the recorded call
Marked response: f

Exam item: Could you check what this test reported for Nc1nc2ccc(-c3cncc(Oc4ccc(F)cc4)c3)cc2[nH]1 ?
Marked response: t

====

Tested on: Plasmodium falciparum NF54-HGL (transmission to Anopheles stephensi)
measurement.notes: percentage of barcode signal found in uninfected mosquitoes (transmission-blocking activity); higher = stronger blocking of transmission to mosquito, active = 80 or more
setup.conditions: 20 µM; gametocyte preincubation time 24 h; readout time post-feed 8 days
Lab note: anything with percentage of barcode signal found in uninfected mosquitoes at or over 30% counts as 1.0; the rest go in 0.0.

Example results:
>>> print(df.to_string())
                                   compound  class_assignment
0       CCOc1ccc(OCC(=O)Nc2cc(C)cc(C)c2)cc1               0.0
1                    Nc1cccnc1Nc1ccc(Cl)cc1               1.0
2  CC1(COc2ccc(N3CCC(Oc4ccc(OC(F)(F)F)cc4)CC3)cc2)Cn2cc([N+](=O)[O-])nc2O1 (stereo unspecified)               1.0
3                Nc1nccc2ccc(Oc3ccncc3)cc12               1.0
4  COc1ccc2nccc(NC(=O)C3CCN(CCc4ccc(Cl)cc4)CC3)c2n1               0.0

Could you now look at the following compound, please?
Exam item: // inclusive: percentage of barcode signal found in uninfected mosquitoes at least 30%? input: FC(F)(F)c1ccc(N(c2cccnc2)C2CCN(c3ccc(C(F)(F)F)cn3)CC2)cc1
Marked response: 0.0

====

System: Plasmodium falciparum NF54-HGL (transmission to Anopheles stephensi)
measurement.notes: percentage of barcode signal found in uninfected mosquitoes (transmission-blocking activity); higher = stronger blocking of transmission to mosquito, active = 80 or more
setup.conditions: 20 µM; gametocyte preincubation time 24 h; readout time post-feed 8 days
percentage of barcode signal found in uninfected mosquitoes for assorted molecules
The response must be a number in % with no trailing unit.

A selection of reference data follows.
>>> print(df.to_string())
                                   molecule                               test_system  unit_name  result_value
0  CCc1ccc([C@@H]2C[C@H](C(F)(F)F)n3ncc(C(=O)NCc4ccc(OC)cc4)c3N2)cc1  Plasmodium falciparum NF54-HGL (transmission to Anopheles stephensi)          %          8.67
1  CC(C)(C)n1nc(Cc2cccc3ccccc23)c2c(N)ncnc21  Plasmodium falciparum NF54-HGL (transmission to Anopheles stephensi)          %        0.0299
2  CC(C)C(Oc1cccc2ccccc12)C(=O)O (centres undefined)  Plasmodium falciparum NF54-HGL (transmission to Anopheles stephensi)          %            20
3  Cc1cc(C)n(-c2ccc(NC(=O)C3CCN(Cc4cnc(C)s4)CC3)cc2)n1  Plasmodium falciparum NF54-HGL (transmission to Anopheles stephensi)          %          1.19
4        COc1ccc(N(CCc2cccc(C)n2)C(C)=O)cc1  Plasmodium falciparum NF54-HGL (transmission to Anopheles stephensi)          %         0.592
5  O=C(Nc1cccc(Cl)c1)c1cnc(N2CCN(c3ccncc3)CC2)c(Cl)c1  Plasmodium falciparum NF54-HGL (transmission to Anopheles stephensi)          %            56
6  CC(=O)Nc1ccc(-c2noc(CC3CCCN(Cc4cccc(F)c4C)C3)n2)cc1 (centres undefined)  Plasmodium falciparum NF54-HGL (transmission to Anopheles stephensi)          %        0.0253
7  Nc1ncc(-c2cn[nH]c2)cc1-c1nc2cc(Cl)cnc2[nH]1  Plasmodium falciparum NF54-HGL (transmission to Anopheles stephensi)          %          48.9

Exam item: Which value of percentage of barcode signal found in uninfected mosquitoes has been reported for COc1ccc(S(=O)(=O)Nc2ccc(CN3CCN(C(=O)c4cccc(C#N)c4)CC3)cc2)cc1 in the records?
Marked response: 8.68

Exam item: Quick one: percentage of barcode signal found in uninfected mosquitoes for O=C(Nc1cccc(-c2ccc(NCCCN3CCCC3)nc2)c1)c1ccccc1 ?
Marked response: 29.8

Exam item: Fill blank: measured percentage of barcode signal found in uninfected mosquitoes of the molecule O=C(C1CCN(c2nnc(-n3cccc3)s2)CC1)N1CCC(Cc2ccccc2)CC1 is ____.
Marked response: 28.5
